test: Primary fluorescence-based thiol-reactive (MSTI) qHTS assay for identification of artifact compounds. (AID 1845221); settings: MSTI thiol-reactivity probe, 1 h; series mostly up to 53.8 µM; further: nearly all actives have a fitted effect of over 65% in size
Results filed as inconclusive are left out. Activity calls are given as the source filed them. The call rests on the fitted dose curve; in most records, active means well fitted inhibition curve with a large enough effect; inconclusive means small, poorly fitted or top-dose-only effect; inactive means no such curve, though single readings can be large or run the other way.
Give one outcome, nothing more. List: t for active, f for inactive

Hi team, can someone confirm the assay call for COC(=O)[C@@H]1[C@H]2C[C@H]3c4[nH]c5ccccc5c4CCN3C[C@@H]2CC[C@@H]1O ?
f

Hi team, can someone confirm the assay call for CC(C)NCC(O)COc1cccc2[nH]ccc12 (stereo not given) ?
f

Hi team, can someone confirm the assay call for CCS(=O)(=O)N1CC(CC#N)(n2cc(-c3ncnc4[nH]ccc34)cn2)C1 ?
f

Hi team, can someone confirm the assay call for CC(=O)Nc1ccc([C@H](C)C(=O)Nc2ncc(C(C)C)s2)cc1 ?
f

Hi team, can someone confirm the assay call for CC(C)C(=O)Oc1ccc(CO)cc1[C@H](CCN(C(C)C)C(C)C)c1ccccc1 ?
f

Hi team, can someone confirm the assay call for Cc1nc(N)sc1-c1ccnc(Nc2ccc(N3CCOCC3)cc2)n1 ?
t

Hi team, can someone confirm the assay call for Clc1ccc(Cn2c(CN3CCCC3)nc3ccccc32)cc1 ?
f

Hi team, can someone confirm the assay call for COc1cc2ncnc(Nc3ccc(F)c(Cl)c3)c2cc1OCCCN1CCOCC1 ?
f

Hi team, can someone confirm the assay call for CN(C[C@@H]1COCCO1)S(=O)(=O)Nc1ccc2ccc3ncc(-c4cnn(C)c4)cc3c(=O)c2c1 ?
f

Hi team, can someone confirm the assay call for CS(=O)(=O)N(Cc1ccco1)CC(O)Cn1c2ccccc2c2ccccc21 (stereo not given) ?
f

Hi team, can someone confirm the assay call for COc1ccc(Cc2ccc(NC(N)=O)cc2)cc1-c1cccc(Cl)c1 ?
f

Hi team, can someone confirm the assay call for COc1ccccc1N1CCN(CCCNc2cc(=O)n(C)c(=O)n2C)CC1 ?
f

Hi team, can someone confirm the assay call for COc1ccc2c(Oc3ccc(NC(=O)c4c(C)n(CC(C)(C)O)n(-c5ccccc5)c4=O)cc3F)ccnc2c1 ?
f

Hi team, can someone confirm the assay call for O=C(Nc1ccccc1-c1cn2c(CN3CCNCC3)csc2n1)c1cnc2ccccc2n1 ?
f

Hi team, can someone confirm the assay call for CCCNC(=O)NS(=O)(=O)c1ccc(Cl)cc1 ?
f

Hi team, can someone confirm the assay call for CC(C)(C)Cn1c(N)nc2ccc(-c3[nH]c(C(C)(C)C)nc3-c3ccc(F)cc3)nc21 ?
t

Hi team, can someone confirm the assay call for O=C(Nc1cccc(Br)c1)c1cccc(S(=O)(=O)N2CCCCCC2)c1 ?
f

Hi team, can someone confirm the assay call for CC(C)(C)OC(=O)N[C@H]1CCCCCC=C[C@@H]2C[C@@]2(C(=O)NS(=O)(=O)C2CC2)NC(=O)[C@@H]2C[C@@H](OC(=O)N3Cc4cccc(F)c4C3)CN2C1=O ?
f

Hi team, can someone confirm the assay call for O=C(NCc1ccccc1)c1csc(Nc2ccncn2)n1 ?
f

Hi team, can someone confirm the assay call for NC(=O)c1cccc(-c2cc(Nc3ccc(OC(F)(F)F)cc3)ncn2)c1 ?
f

----------
test: Quantitative High-Throughput drug screen in 47 multiple myeloma cell lines against the NCATS MIPE library collection: FR4_PLB cell viability assay (AID 1918924; further: nearly all actives have a fitted effect of over 35% in size); conditions: FR4_PLB myeloma cells viability, CellTiter-Glo ATP, 48 h; series mostly up to 45.8 µM
Records with an inconclusive call do not appear. Calls of active or inactive are those of the source. Calls come from the whole dose curve; as a rule, active = well fitted cell-killing curve with a large enough effect; inconclusive = small, poorly fitted or top-dose-only effect, or effect the other way; inactive = no such curve, though single readings can be large or run the other way.
Give one outcome, nothing more. List: active, inactive

Hi team, can someone confirm the assay call for O=C(NC1CCOCC1)c1ccc(-c2cc(-c3cn[nH]c3-c3ccccn3)ccn2)cc1 ?
inactive

Hi team, can someone confirm the assay call for Cc1ccn(-c2ccc(-c3ncco3)cc2)c(=O)c1-c1ccc2nc(N)ncc2c1 ?
inactive

Hi team, can someone confirm the assay call for CN(C[C@@H]1COCCO1)S(=O)(=O)Nc1ccc2ccc3ncc(-c4cnn(C)c4)cc3c(=O)c2c1 ?
active

Hi team, can someone confirm the assay call for COCCOC(=O)C1=C(C)NC2=C(C(=O)CC(c3ccccc3OC)C2)C1c1cccc(O)c1 (stereo not given) ?
active

Hi team, can someone confirm the assay call for NS(=O)(=O)c1ccc(NC2=CC(=O)c3ccccc3C2=O)cc1 ?
active

Hi team, can someone confirm the assay call for C[C@]12CCC3c4ccc(O)cc4CCC3C1CCC2=O (stereo not given in full) ?
active

Hi team, can someone confirm the assay call for COc1ccc(-c2coc3cc(O)cc(O)c3c2=O)cc1 ?
inactive

Hi team, can someone confirm the assay call for O=c1c(O)c(-c2ccc(O)cc2)oc2cc(O)cc(O)c12 ?
inactive

Hi team, can someone confirm the assay call for COc1ncc(-c2ccc3nccc(-c4ccnnc4)c3c2)cc1NS(=O)(=O)c1ccc(F)cc1F ?
active

Hi team, can someone confirm the assay call for CN(C)Cc1ccc(-c2nc3cccc4c3n2CCNC4=O)cc1 ?
active

Origin of the recorded values: PubChem BioAssay (NCATS)
